- assayed_system: E. coli GroEL/ES (Escherichia coli, UniProt P0A6F5)
- Construct: made in house; host or cells: GroEL in NEB 5-alpha E. coli; GroES in E. coli BL21 (DE3)
- Sequence (P0A6F5 2-548): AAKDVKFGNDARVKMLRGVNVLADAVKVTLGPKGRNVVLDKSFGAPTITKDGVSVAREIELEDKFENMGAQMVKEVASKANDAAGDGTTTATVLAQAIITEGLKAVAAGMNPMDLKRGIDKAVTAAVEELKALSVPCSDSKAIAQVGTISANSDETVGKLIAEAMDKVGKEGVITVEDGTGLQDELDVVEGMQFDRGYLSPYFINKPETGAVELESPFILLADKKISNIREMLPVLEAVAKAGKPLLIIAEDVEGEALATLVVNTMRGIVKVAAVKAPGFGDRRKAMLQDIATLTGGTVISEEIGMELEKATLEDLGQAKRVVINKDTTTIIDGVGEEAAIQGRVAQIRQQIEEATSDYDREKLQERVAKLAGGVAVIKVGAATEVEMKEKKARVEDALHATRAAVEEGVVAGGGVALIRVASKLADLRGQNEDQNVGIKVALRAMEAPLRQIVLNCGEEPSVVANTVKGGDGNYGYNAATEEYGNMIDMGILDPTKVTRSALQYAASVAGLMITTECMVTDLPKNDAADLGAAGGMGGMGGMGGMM
- measurement_protocol: GroEL/ES-mediated dMDH refolding assay
- Assay type: biochemical
- condition_context: without NfsB nitroreductase; read-out: GroEL/ES-dMDH Refolding IC50
quantity_kind: pIC50
pIC50 is defined as minus the log10 of a concentration measured in mol/L.

Reference set, count: 2
compound: O=C(N/N=C/c1ccc([N+](=O)[O-])o1)c1ccc(Cl)s1 [Compound 17]
pIC50: 4.06
--
compound: COc1ccc(C(=O)N/N=C/c2ccc([N+](=O)[O-])o2)cc1 [Compound 20]
pIC50: 4.16

Continue with the next compound.
Exam item: Can you look up the measured pIC50 of CN(C)c1ccc(C(=O)N/N=C/c2ccc([N+](=O)[O-])o2)cc1 [Compound 21] for me?
Marked response: 4.59

* * *

- System: FHC colon cells
- measurement_protocol: in vitro
- condition_context: human, 48 h
- Protocol: Evaluating compound effects on the viability of human colon and small intestine cells. […] Evaluating compound effects on the viability of human colon and small intestine cells. Evaluation of compound cytotoxicities to FHC colon and FHs 74 Int small intestine cells were performed using Alamar Blue-based viability assays. […] FHs 74 Int cells were maintained in Hybri-care medium (ATCC 46-X) supplemented with 30 ng/mL recombinant epidermal growth factor (EGF) and 10% FBS (Midwest Scientific, USDAFBS).
The entries below are paired with their reported CC50.
// return numeric value only (unit: µM, not printed)

molecule: O=C(N/N=C/c1ccc([N+](=O)[O-])o1)c1ccncc1
assayed_system: FHC colon cells
assay_result: 61

Exam item: Can you look up the measured CC50 of `O=C(N/N=C/c1ccc([N+](=O)[O-])o1)c1ccc(Cl)s1` for me?
Marked response: 53

Exam item: Can you look up the measured CC50 of `O=C(N/N=C/c1ccc([N+](=O)[O-])o1)c1cccs1` for me?
Marked response: 83

Exam item: Can you look up the measured CC50 of O=C(N/N=C/c1ccc([N+](=O)[O-])o1)c1ccc(O)cc1 [Nifuroxazide, reference compound] for me?
Marked response: 61

* * *

- Tested on: Enterobacter cloacae strain CDC 442-68 (ATCC #13047)
- measurement_protocol: bacterial proliferation assay, E. cloacae
- Type: cell-based
- condition_context: ATCC13047, read-out: Bacterial Proliferation EC50 E. cloacae
The entries below are paired with their reported EC50.

compound: COc1ccc(C(=O)N/N=C/c2ccccc2)cc1 [Compound 37, N′-benzylidene-4-methoxybenzohydrazide]
EC50: > 100 µM

compound: O=Cc1ccc([N+](=O)[O-])o1 [Compound 41, reference compound]
EC50: 13 µM

compound: CCOc1ccc(S(=O)(=O)Nc2ccc(C(=O)N/N=C/c3ccc(O)c4ncccc34)cc2)cc1
EC50: > 100 µM

Exam item: Can you look up the measured EC50 of `O=C(N/N=C/c1ccc(O)c2ncccc12)c1ccccc1` for me?
Marked response: 80 µM

Exam item: Can you look up the measured EC50 of `O=C(N/N=C/c1cccc2ncccc12)c1ccccc1` for me?
Marked response: > 100 µM

Exam item: Can you look up the measured EC50 of `O=C(N/N=C/c1ccc(O)c2ncccc12)c1ccc(O)cc1` for me?
Marked response: 97 µM

Exam item: Can you look up the measured EC50 of `O=C(N/N=C/c1ccc([N+](=O)[O-])o1)c1cccc(Oc2ccccc2)c1` for me?
Marked response: > 100 µM

Exam item: Can you look up the measured EC50 of `COc1ccc(C(=O)N/N=C/c2cccc3ccccc23)cc1` for me?
Marked response: > 100 µM

Exam item: Can you look up the measured EC50 of `COc1ccc(C(=O)N/N=C/c2ccc([N+](=O)[O-])o2)cc1` for me?
Marked response: > 100 µM

* * *

- Tested on: FHC colon cells
- measurement_protocol: in vitro
quantity_kind: SI (CC50/EC50) Colon
The reply should be a number, written without any unit.

Reference set, count: 2
molecule: O=C(N/N=C/c1ccc([N+](=O)[O-])o1)c1ccncc1 [Compound 19]
quantity_kind: SI (CC50/EC50) Colon
assay_result: 26
--
molecule: O=C(N/N=C/c1ccc([N+](=O)[O-])o1)c1cccs1 [Compound 16]
quantity_kind: SI (CC50/EC50) Colon
assay_result: 198

Continue with the next molecule.
Exam item: Can you look up the measured SI (CC50/EC50) Colon of O=C(N/N=C/c1ccc([N+](=O)[O-])o1)c1ccc(Cl)s1 [Compound 17] for me?
Marked response: 119

* * *

- assayed_system: native MDH (Sus scrofa)
- Sequence (P00346 25-338): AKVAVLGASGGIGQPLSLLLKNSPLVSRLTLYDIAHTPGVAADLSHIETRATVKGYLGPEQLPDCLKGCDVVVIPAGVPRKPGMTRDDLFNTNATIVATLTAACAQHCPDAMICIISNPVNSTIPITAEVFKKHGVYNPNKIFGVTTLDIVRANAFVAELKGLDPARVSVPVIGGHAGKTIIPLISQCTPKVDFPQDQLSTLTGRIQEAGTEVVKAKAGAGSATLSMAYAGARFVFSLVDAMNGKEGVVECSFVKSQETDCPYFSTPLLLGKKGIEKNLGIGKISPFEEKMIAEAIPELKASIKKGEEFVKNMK
- measurement_protocol: native MDH enzymatic activity counter-screen
- Type: biochemical, pig
quantity_kind: IC50

Exam item: Any idea what IC50 came out for `O=C(N/N=C/c1ccc([N+](=O)[O-])o1)c1ccc(NS(=O)(=O)c2ccc(Br)cc2)cc1` on native MDH (Sus scrofa)?
Marked response: > 63 µM

Exam item: Any idea what IC50 came out for O=C(N/N=C/c1ccc([N+](=O)[O-])o1)c1ccc(O)cc1 [Nifuroxazide, reference compound] on native MDH (Sus scrofa)?
Marked response: > 63 µM

* * *

- assayed_system: E. coli GroEL/ES (Escherichia coli, UniProt P0A6F5)
- Construct: made in house; host or cells: GroEL in NEB 5-alpha E. coli; GroES in E. coli BL21 (DE3)
- measurement_protocol: GroEL/ES-mediated dRho refolding assay
- Assay type: biochemical
- condition_context: read-out: GroEL/ES-dRho Refolding IC50
The entries below are paired with their reported pIC50.
pIC50 is defined as minus the log10 of a concentration measured in mol/L.

Reference set, count: 3
compound: CN(C)c1ccc(C(=O)N/N=C/c2ccc([N+](=O)[O-])o2)cc1
pIC50: 4.59
//
compound: O=C(N/N=C/c1ccc([N+](=O)[O-])o1)c1ccc(Cl)s1
pIC50: 4.22
//
compound: O=C(N/N=C/c1ccc([N+](=O)[O-])o1)c1cccs1
pIC50: 3.65

Exam item: Can you look up the measured pIC50 of O=Cc1ccc(O)c2ncccc12 [Compound 40, reference compound] for me?
Marked response: 4.52

* * *

- System: FHs 74 Int small intestine cells
- measurement_protocol: in vitro
- condition_context: human, 48 h
quantity_kind: CC50 (µM)
// return numeric value only (unit: µM, not printed)

Reference set, count: 5
compound: CN(C)c1ccc(C(=O)N/N=C/c2ccc([N+](=O)[O-])o2)cc1
CC50 [µM]: 93
--
compound: O=C(N/N=C/c1ccc([N+](=O)[O-])o1)c1ccc(Cl)s1
CC50 [µM]: 85
--
compound: O=C(N/N=C/c1ccc([N+](=O)[O-])o1)c1ccc(O)cc1 [Nifuroxazide, reference compound]
CC50 [µM]: 79
--
compound: O=C(N/N=C/c1ccc([N+](=O)[O-])o1)c1cccs1
CC50 [µM]: 71
--
compound: COc1ccc(C(=O)N/N=C/c2ccc([N+](=O)[O-])o2)cc1
CC50 [µM]: 75

Exam item: Can you look up the measured CC50 of `O=C(N/N=C/c1ccc([N+](=O)[O-])o1)c1ccncc1` for me?
Marked response: 90

Exam item: Can you look up the measured CC50 of `O=C(N/N=C/c1ccc([N+](=O)[O-])o1)c1ccccc1` for me?
Marked response: 94

* * *

- assayed_system: native rhodanese (Bos taurus)
- Sequence (P00586 whole entry): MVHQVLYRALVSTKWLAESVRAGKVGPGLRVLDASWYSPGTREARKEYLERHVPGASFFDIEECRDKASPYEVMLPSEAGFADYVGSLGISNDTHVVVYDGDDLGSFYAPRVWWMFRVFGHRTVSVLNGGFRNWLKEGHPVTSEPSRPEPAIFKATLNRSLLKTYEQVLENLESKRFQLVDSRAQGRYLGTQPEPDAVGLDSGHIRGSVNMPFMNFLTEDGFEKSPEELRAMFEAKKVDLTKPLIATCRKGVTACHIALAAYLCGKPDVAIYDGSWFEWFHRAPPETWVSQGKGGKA
- measurement_protocol: native rhodanese enzymatic activity counter-screen
- Format: biochemical
- condition_context: compounds added after refolding; read-out: Native Rho Activity IC50
The entries below are paired with their reported log10(IC50).
Answers are given as log10 of IC50 in µM.

Reference set, count: 6
molecule: CCOc1ccc(S(=O)(=O)Nc2ccc(C(=O)N/N=C/c3ccc([N+](=O)[O-])o3)cc2)cc1
log10(IC50): 1.65
//
molecule: O=C(N/N=C/c1ccc([N+](=O)[O-])o1)c1ccc(NS(=O)(=O)c2cccs2)cc1
log10(IC50): 1.64
//
molecule: O=C(N/N=C/c1ccc(O)c2ncccc12)c1ccc(Cl)s1
log10(IC50): 1.15
//
molecule: CCN(CC)S(=O)(=O)c1cccc(C(=O)N/N=C/c2ccc(O)c3ncccc23)c1
log10(IC50): 1.91
//
molecule: O=C(N/N=C/c1ccc([N+](=O)[O-])o1)c1ccccc1
log10(IC50): 1.92
//
molecule: COc1ccc(C(=O)N/N=C/c2ccc(O)c3ccccc23)cc1
log10(IC50): 1.82

Exam item: Can you look up the measured log10(IC50) of `O=C(N/N=C/c1ccc([N+](=O)[O-])o1)c1cccc(Oc2ccccc2)c1` for me?
Marked response: 1.81

Exam item: Can you look up the measured log10(IC50) of `O=C(N/N=C/c1ccc(O)c2ncccc12)c1cccc(Oc2ccccc2)c1` for me?
Marked response: 1.93

Exam item: Can you look up the measured log10(IC50) of `O=C(N/N=C/c1ccc(O)c2ncccc12)c1ccccc1` for me?
Marked response: 1.98
